biological target: catalytic domain of human JAK2 (Homo sapiens, UniProt O60674); construct: the catalytic domain of human JAK2; assay: Inhibition of JAK2 activity (Z'-Lyte Kinase Assay kit-Tyr 6 Peptide); format: biochemical
Sequence (O60674 849-1124 limits assumed): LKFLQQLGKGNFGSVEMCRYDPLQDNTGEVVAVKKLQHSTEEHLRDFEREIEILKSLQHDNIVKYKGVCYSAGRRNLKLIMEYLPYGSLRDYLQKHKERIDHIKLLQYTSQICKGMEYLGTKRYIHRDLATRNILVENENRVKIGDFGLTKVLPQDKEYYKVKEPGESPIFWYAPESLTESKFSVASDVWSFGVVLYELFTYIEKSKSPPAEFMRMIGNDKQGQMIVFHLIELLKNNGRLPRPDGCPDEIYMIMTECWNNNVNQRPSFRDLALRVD
quantityMeasured: inhibition at 1 µM

Worked set:
- CC(=O)N1CCC(n2c(=O)n(C)c3cnc(-c4cnn5ccc(C(F)(F)F)cc45)nc32)CC1: > 50%
- Cn1c(=O)n(C2CCOCC2)c2nc(-c3cnn4ccccc34)ncc21: > 50%
- N#Cc1ccn2ncc(-c3ncc4[nH]c(=O)n([C@H]5CCCN(S(=O)(=O)CC(F)(F)F)C5)c4n3)c2c1: > 50%
- CC(C)NC(=O)N1CCC[C@H](n2c(=O)[nH]c3cnc(-c4cnn5ccc(C#N)cc45)nc32)C1 [Example 26c]: > 50%
- CCC(CC)C(=O)N1CCC[C@H](n2c(=O)[nH]c3cnc(-c4cnn5ccc(C#N)cc45)nc32)C1 [Example 10e]: > 50%
- CC(C)C(=O)N1CCC[C@H](n2c(=O)[nH]c3ccc(-c4cnn5ccccc45)nc32)C1: > 50%

Request the reported inhibition at 1 µM associated with Cc1nc2ccc(-c3cnn4ccc(C#N)cc34)nc2n1C1CCOCC1
> 50%

Request the reported inhibition at 1 µM associated with Cn1c(=O)n(C2CCOCC2)c2nc(-c3cnn4ccccc34)ccc21
> 50%

The values you see were collected from patent US8946257B2.
